Reported inhibition values are given for each entry in this list.
TARGET OR SYSTEM: Platelet-derived growth factor receptor beta (Homo sapiens) (UniProt P09619);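 note: reported value is the mean percent inhibition of the kinase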
Sequence (P09619 whole entry): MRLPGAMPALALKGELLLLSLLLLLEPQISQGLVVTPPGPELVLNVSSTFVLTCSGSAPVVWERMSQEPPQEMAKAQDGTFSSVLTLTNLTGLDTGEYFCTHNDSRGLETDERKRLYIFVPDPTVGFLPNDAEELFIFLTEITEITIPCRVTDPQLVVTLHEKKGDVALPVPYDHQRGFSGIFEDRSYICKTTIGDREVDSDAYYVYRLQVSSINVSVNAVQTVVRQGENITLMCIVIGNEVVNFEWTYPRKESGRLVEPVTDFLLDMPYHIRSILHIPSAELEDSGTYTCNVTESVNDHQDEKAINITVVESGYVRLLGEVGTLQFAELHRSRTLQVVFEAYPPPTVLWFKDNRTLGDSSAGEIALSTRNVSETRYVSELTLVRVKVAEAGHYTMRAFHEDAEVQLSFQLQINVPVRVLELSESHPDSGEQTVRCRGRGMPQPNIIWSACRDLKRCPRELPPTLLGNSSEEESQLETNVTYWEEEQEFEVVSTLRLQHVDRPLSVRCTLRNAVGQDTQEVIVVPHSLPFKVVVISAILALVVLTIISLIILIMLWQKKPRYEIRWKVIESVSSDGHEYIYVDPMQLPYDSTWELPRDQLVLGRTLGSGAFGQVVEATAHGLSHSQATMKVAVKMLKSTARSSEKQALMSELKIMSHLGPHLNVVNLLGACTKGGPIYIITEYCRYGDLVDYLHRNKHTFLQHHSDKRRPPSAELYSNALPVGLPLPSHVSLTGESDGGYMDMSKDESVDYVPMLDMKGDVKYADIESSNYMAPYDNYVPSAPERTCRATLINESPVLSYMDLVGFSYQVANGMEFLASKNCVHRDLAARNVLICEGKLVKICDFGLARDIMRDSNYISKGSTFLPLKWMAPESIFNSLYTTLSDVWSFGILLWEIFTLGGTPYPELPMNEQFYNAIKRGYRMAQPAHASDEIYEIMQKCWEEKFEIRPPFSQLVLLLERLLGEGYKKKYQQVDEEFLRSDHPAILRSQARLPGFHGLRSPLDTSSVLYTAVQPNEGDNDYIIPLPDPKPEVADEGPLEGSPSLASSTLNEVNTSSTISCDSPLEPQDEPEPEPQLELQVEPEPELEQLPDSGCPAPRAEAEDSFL
MEASUREMENT CONTEXT: at 0.1 µM
Give just the number in %; leave the unit off.

CN(C)CCCNc1nccc(-c2c(-c3ccc(F)cc3)nn3cc(C(F)(F)F)ccc23)n1; 6.34
COc1cc(Nc2ncc(-c3ccccc3)o2)cc(OC)c1OC; 23

What inhibition value was documented for this molecule, COc1ccc2cc(-c3c(-c4ccncc4)nc(-c4ccc([S+](C)[O-])cc4C)n3C)ccc2c1 (centres undefined) ?
0.23

Fill blank: measured inhibition of the molecule c1ccc(-c2n[nH]cc2-c2ccnc(-c3ccc(OCCN4CCOCC4)cc3)c2)nc1 is ____.
16.2

Which inhibition is reported for this molecule? C[C@@H](Oc1cc(-n2cnc3ccc(OCC4CCN(C)CC4)cc32)sc1C(N)=O)c1ccccc1Cl
39.8

Entry COc1cc(C)c(N(C)C(=O)CN(C)C)cc1Nc1nc(Nc2cccc(F)c2C(N)=O)c2cc[nH]c2n1 has what inhibition?
0.52

Need inhibition of CCS(=O)(=O)c1ccc(OC)c(Nc2ncc(-c3ccccc3Cl)o2)c1 , thanks.
4.1

Request the reported inhibition associated with CS(=O)(=O)CCNCc1cc(-c2cc3c(Nc4ccc(OCc5cccc(F)c5)c(Cl)c4)ncnc3s2)cs1
4.84

Sample O=C(Nc1n[nH]c2nc(-c3ccco3)ccc12)C1CC1 — what was its inhibition?
1.45

* * *

Measured inhibition values are reported for all entries that follow.
TARGET OR SYSTEM: PAS domain-containing serine/threonine-protein kinase (Homo sapiens) (UniProt Q96RG2)
Sequence (Q96RG2 whole entry, the tested form may be a part): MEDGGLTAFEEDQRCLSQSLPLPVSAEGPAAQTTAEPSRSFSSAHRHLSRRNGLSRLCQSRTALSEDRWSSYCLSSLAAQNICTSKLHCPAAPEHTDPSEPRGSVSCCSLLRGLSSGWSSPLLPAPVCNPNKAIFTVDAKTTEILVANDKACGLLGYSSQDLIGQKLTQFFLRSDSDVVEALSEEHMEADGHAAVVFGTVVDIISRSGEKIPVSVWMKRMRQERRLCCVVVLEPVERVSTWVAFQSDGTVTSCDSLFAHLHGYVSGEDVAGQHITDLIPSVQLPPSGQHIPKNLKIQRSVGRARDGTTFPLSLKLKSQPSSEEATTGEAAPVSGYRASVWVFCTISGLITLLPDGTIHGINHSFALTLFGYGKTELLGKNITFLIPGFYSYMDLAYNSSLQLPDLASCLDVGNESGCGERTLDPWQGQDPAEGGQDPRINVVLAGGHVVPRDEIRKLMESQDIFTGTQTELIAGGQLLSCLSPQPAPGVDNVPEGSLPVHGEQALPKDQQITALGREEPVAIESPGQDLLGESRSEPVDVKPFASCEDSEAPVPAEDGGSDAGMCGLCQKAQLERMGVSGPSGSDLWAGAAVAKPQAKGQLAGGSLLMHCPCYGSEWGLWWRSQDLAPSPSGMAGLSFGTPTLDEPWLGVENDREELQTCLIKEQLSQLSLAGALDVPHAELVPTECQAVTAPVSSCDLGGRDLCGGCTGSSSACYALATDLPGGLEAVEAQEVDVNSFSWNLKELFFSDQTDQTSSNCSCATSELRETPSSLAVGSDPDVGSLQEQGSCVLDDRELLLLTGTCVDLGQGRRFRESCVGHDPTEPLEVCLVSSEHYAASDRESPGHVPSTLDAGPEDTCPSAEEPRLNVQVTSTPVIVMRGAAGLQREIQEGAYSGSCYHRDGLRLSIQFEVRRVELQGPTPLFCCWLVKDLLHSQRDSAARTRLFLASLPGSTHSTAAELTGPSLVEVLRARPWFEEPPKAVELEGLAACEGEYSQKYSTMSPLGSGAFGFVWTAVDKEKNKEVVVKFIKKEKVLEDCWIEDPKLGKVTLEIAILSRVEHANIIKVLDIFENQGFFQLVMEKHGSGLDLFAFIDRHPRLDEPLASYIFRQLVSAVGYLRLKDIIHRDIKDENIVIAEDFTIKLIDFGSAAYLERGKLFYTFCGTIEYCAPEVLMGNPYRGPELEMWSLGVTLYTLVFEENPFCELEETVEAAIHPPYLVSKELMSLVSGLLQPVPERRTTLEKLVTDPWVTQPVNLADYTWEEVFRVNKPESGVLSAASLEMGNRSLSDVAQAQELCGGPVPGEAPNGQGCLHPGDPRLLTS
MEASUREMENT CONTEXT: at 0.1 µM
Description: GSK_PKIS: PASK mean inhibition at 0.1 uM [Nanosyn]
Output spec: scalar in %, unitless text.

Known inhibition results, listed for orientation:
CCS(=O)(=O)c1ccc(OC)c(Nc2ncc(-c3ccccc3Cl)o2)c1; 1.42
O=C(Nc1ccc(Oc2ccc3[nH]c(NC(=O)c4ccccc4)nc3c2)cc1)Nc1cc(C(F)(F)F)ccc1F; 0.68
NC(=O)Cc1ccccc1Oc1nccc(-c2c(-c3ccc(F)cc3)ncn2C2CCNCC2)n1; 0.15
c1ccc(Oc2ccc(Nc3ncc(-c4ccccc4)o3)cc2)cc1; -0.25

Which inhibition is reported with PAS domain-containing serine/threonine-protein kinase (Homo sapiens) (UniProt Q96RG2) for this entry: COc1cc(N2CCN(C(C)C)CC2)ccc1Nc1nc(Nc2ccc(F)cc2C(=O)NC[C@@H](O)CO)c2cc[nH]c2n1 ?
-0.25

Report inhibition for COc1cccc(/C=N/Nc2ncnc3c2cnn3-c2cccc(OC)c2)c1 tested on PAS domain-containing serine/threonine-protein kinase (Homo sapiens) (UniProt Q96RG2).
-0.3

Can you look up inhibition on PAS domain-containing serine/threonine-protein kinase (Homo sapiens) (UniProt Q96RG2) for COc1cc(Nc2ncc3c(C)nc(-c4cccc(Oc5ccccc5)c4)n3n2)cc(OC)c1OC ?
0.54

Lab note: need inhibition with PAS domain-containing serine/threonine-protein kinase (Homo sapiens) (UniProt Q96RG2) for entry CN(C)c1ccc2c(c1)/C(=C/Nc1ccc(S(N)(=O)=O)cc1)C(=O)N2 , please look it up.
-0.32

Can you look up inhibition on PAS domain-containing serine/threonine-protein kinase (Homo sapiens) (UniProt Q96RG2) for O=C(NCC1CC1)c1ccc(-c2cccc(C(=O)NC3CC3)c2)cc1 ?
0.62

// provenance: ChEMBL document CHEMBL1961873
